# test name: NCI Yeast Anticancer Drug Screen. Data for the sgs1 mgt1 strain (AID 161);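 further: 0% = growth of cultures given vehicle only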
# stated conditions: S. cerevisiae sgs1 mgt1 strain, at 50.0 µM
# Protocol: Growth inhibition of yeast strains with defined genetic alterations is measured as a screen for potential anti-cancer activity. Selected strains with alterations in DNA damage repair or cell cycle control were exposed to compounds and growth inhibition was measured relative to vehicle treated controls. The strain used in this assay is sgs1 mgt1
Compounds without any hit were thinned out: in the full panel of roughly 79,000, 15% have a hit. Activity calls are given as the source filed them. No stated cut-off is given here; in the data, active means growth inhibition above about 70%; inactive means the rest.
Outcome codes: 1.0 for active, 0.0 for inactive

O=C(O)C(Br)C(O)c1ccccc1 (configuration not stated)
0.0
CC(CS(C)(=O)=O)S(=O)(=O)O (configuration not stated)
0.0
CNCCC(=O)c1ccccc1
0.0
COC(=O)C1=C(\N2CCOCC2)CCCC/C=C\1C(=O)OC
0.0
C1=C(c2ccccc2)C(OC2Oc3ccccc3C=C2c2ccccc2)Oc2ccccc21 (configuration not stated)
0.0
Cc1ccc(-c2nc3ccccc3c(=O)o2)cc1
0.0
COc1cc(NCCCCCCN(C)C)c2ncccc2c1
0.0
CCC(C)C1(C)OC1C(=O)OC (configuration not stated)
0.0
CCN(CC)C(=O)N1CCN(c2ccccc2)CC1
0.0
C[Si](C)(C)O/C=C1/CCOC1=O
0.0
O=C(O)c1cccc(C(=O)O)c1S(=O)Cc1ccccc1 (configuration not stated)
0.0
CCCCCCCCCCCCCCCCCCSCCCCCCCCCCCCCCCCCC
0.0
N#CSCc1cc(Cl)c(CSC#N)c(Cl)c1Cl
0.0
COc1ccc(N2C(=O)CC(c3cc(OC)c(OC)c(OC)c3)CC2=O)cc1
0.0
COCCNC(=O)C1C(=O)C(=O)N(CCOC)C1=O (configuration not stated)
0.0
CCOc1ccc2nc(NC(=O)C(=O)C(C(=O)c3ccccc3-c3ccccc3)C3OC(=O)c4ccccc43)sc2c1 (configuration not stated)
0.0
CCOC(=O)CC(=O)c1sc(SC)c(C#N)c1N
0.0
c1ccc(-c2nc(-c3nn[nH]n3)c3ccccc3n2)cc1
0.0
CN(C)c1ccc(/C=C/C=C/C(=O)c2ccccc2)cc1
0.0
C(#CCOc1ccc2c(c1)OCO2)COc1ccc2c(c1)OCO2
0.0
CC(C)n1c(=O)nc(-c2ccccc2)c2cc3c(cc21)OCO3
0.0
C=CCN1C(N)=C(C#N)C(C#N)(C#N)C1CCC (configuration not stated)
0.0
O=C(O)CCCCCCCCCC(=O)O
0.0
CCC1(C)CC(C)(C)c2cc(C(C)=O)c(C)cc21 (configuration not stated)
0.0
CCN(CC)C(=O)Oc1cc(C(=O)N(CC)CC)c(OC(=O)N(CC)CC)cc1C(=O)N(CC)CC
0.0
CC(CC[C@@H](O)C(C)(C)O)C1[C@@H](O)CC2(C)C3CC(O)C4C(C)(C)[C@@H](OC5OC(CO)C(O)C(O)C5O)CC[C@@]45C[C@@]35CC[C@]12C (some centres not stated)
0.0
CCCCCCC1OCCC(C)O1 (configuration not stated)
0.0
O=C1OCCN1N1C(=O)CC2(CCN(Cc3ccccc3)CC2)C1=O
0.0
CC1=NN(c2ccccc2C)C(=O)C1
0.0
O=S(=O)(O)c1ccc(O)c2ncccc12
0.0
CC(=O)OC1C(C)OC(OC(=O)C2CCC3C(C2)OC2(CC(OC(=O)/C=C/c4ccccc4)C(C)CO2)C32CO2)C(OC2OC(C)C(O)C(O)C2O)C1O (configuration not stated)
0.0
Nc1cccnc1NCC(O)c1ccccc1 (configuration not stated)
0.0
CCOC(=O)CNCc1cccc(C)c1
0.0
C=CCCNC(=S)S
0.0
CCC(=O)Oc1ccc([N+](=O)[O-])cc1[N+](=O)[O-]
0.0
O=C(O)CS(=O)(=O)Cc1ccccc1
0.0
NC(CSS(=O)(=O)O)C(=O)O (configuration not stated)
0.0
C=C(C)CBr
0.0
NC(CSS(=O)(=O)O)=NCCCCC1CCCCC1
0.0
O=C(O)/C(=C/c1ccccc1[N+](=O)[O-])c1ccccc1
0.0
Clc1ccc(SCSc2ccc(Cl)cc2)cc1
0.0
CC(C)/C(=N\N=C(\c1ccccc1)C(C)C)c1ccccc1
0.0
CCCCN=C(C)CC(=O)CC(=O)c1ccccc1
0.0
O=C(CCc1ccc(O)c(O)c1)OCCc1ccccc1
1.0
CCc1cc(Cc2cc(CC)c(NC(=O)C(=O)CC(=O)c3sc(-c4cccnc4)nc3C)c(CC)c2)cc(CC)c1NC(=O)C(=O)CC(=O)c1sc(-c2cccnc2)nc1C
0.0
Nc1ncnc2c1ncn2CCC(COCc1ccccc1)COCc1ccccc1
0.0
COC(=O)c1ccc(OCc2ccc3nc(OC)c(OC)nc3c2)cc1
0.0
